Data origin, for the record: PubChem BioAssay

# composite z-score per entry
tested.target: Concanavalin-A (Canavalia ensiformis) (UniProt P02866)
Sequence (P02866 whole entry, looked up): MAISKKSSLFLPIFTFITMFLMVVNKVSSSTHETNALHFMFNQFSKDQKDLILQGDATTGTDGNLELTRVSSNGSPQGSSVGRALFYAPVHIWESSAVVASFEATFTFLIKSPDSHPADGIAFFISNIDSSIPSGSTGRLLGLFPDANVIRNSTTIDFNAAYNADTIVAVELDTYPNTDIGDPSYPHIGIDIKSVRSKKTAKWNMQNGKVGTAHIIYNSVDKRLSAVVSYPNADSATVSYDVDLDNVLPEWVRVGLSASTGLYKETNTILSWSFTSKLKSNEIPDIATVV
experimental.protocol: ConA small-molecule binders, primary screen, artefact control for SMM control protein annotation, biochemical, small-molecule microarray, Alexa647 label, 635 nm (AID 1127);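 further: z combines 667 nm emission intensity with signal-to-noise across three replicate slides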
stated.conditions: ConA-A647 binding fluorescence, higher = more signal
property.label: composite z-score

| molecule | tested.target | property.label | value.reported |
| --- | --- | --- | --- |
| COC(=O)[C@@]1(Cc2ccccc2)[C@H]2c3cc(C(=O)N4CCCC4)n(Cc4cccc5ccccc45)c3C[C@H]2CN1C(=O)c1ccccc1 | Concanavalin-A (Canavalia ensiformis) (UniProt P02866) | composite z-score | 0.308 |
| COCCOC(=O)N1C(=O)[C@@]2(c3cc(C#Cc4ccc(OC)cc4)ccc31)[C@H](c1ccc(O)cc1)N1[C@H](c3ccccc3)[C@H](c3ccccc3)OC(=O)[C@H]1[C@@H]2C(=O)NC[C@H](O)c1ccccc1 | Concanavalin-A (Canavalia ensiformis) (UniProt P02866) | composite z-score | 1.17 |
| COc1ccc([Si](C)(C)[C@H]2[C@H](CCO)O[C@@]3(C(=O)N(Cc4ccc(N5C(=O)COc6ccccc65)cc4)c4ccccc43)[C@@H]2C)cc1 | Concanavalin-A (Canavalia ensiformis) (UniProt P02866) | composite z-score | -0.116 |
| C=CCC(OC(C)=O)[C@@H]1[C@@H](N(Cc2ccc(-c3cccc(C(F)(F)F)c3)o2)C(=O)Cc2ccc(F)cc2)c2cc(OCCCO)ccc2N1C(=O)Cc1ccc(OC)cc1 (stereo partly drawn) | Concanavalin-A (Canavalia ensiformis) (UniProt P02866) | composite z-score | -1.29 |
| COc1ccc([C@H]2OC[C@@H]3CC4(CC=CC4)C(=O)N32)cc1 | Concanavalin-A (Canavalia ensiformis) (UniProt P02866) | composite z-score | -0.572 |
| Cc1ccc(C(C)CC(O)C2C=CC3C(=O)N(C)C(=O)C3N2NC(=O)OC(C)(C)C)o1 (stereo not drawn) | Concanavalin-A (Canavalia ensiformis) (UniProt P02866) | composite z-score | 1.05 |
| COC(=O)[C@@]1(Cc2ccc(OC)cc2)[C@H]2c3cc(C(=O)N4CCCC4)n(Cc4ccsc4Br)c3C[C@H]2CN1C(=O)c1ccccc1 | Concanavalin-A (Canavalia ensiformis) (UniProt P02866) | composite z-score | 0.496 |
| CC1CC/C=C\[C@H]2OC34C=CCN(c5ccc(Cl)cc5)C(=O)[C@H]3N(CCO)C(=O)[C@]4(C)C2C(=O)O1 (stereo partly drawn) | Concanavalin-A (Canavalia ensiformis) (UniProt P02866) | composite z-score | -0.206 |
| CC[C@@H]1C=C(C(=O)O)[C@H](c2ccco2)N1S(=O)(=O)c1ccc(C)cc1 | Concanavalin-A (Canavalia ensiformis) (UniProt P02866) | composite z-score | -1.29 |
| CCCCN1CC=CC23O[C@@H]4C=CCOC(=O)[C@@H]4[C@H]2C(=O)N(CCCCCO)[C@@H]3C1=O (stereo partly drawn) | Concanavalin-A (Canavalia ensiformis) (UniProt P02866) | composite z-score | -1.08 |
| C#CCN(CC=C(C)C)[C@H](CO)c1ccccc1 | Concanavalin-A (Canavalia ensiformis) (UniProt P02866) | composite z-score | -0.711 |
| [N-]=[N+]=NCc1ccccc1C[C@]1(C(=O)N2CCOCC2)N=C(c2ccc(OCCCO)cc2)O[C@H]1c1ccccc1N=[N+]=[N-] | Concanavalin-A (Canavalia ensiformis) (UniProt P02866) | composite z-score | 1.04 |
| C=CCOC(=O)[C@@H]1[C@H]2C(=O)O[C@H](c3ccccc3)[C@H](c3ccccc3)N2[C@H](c2ccc(OCCOC(=O)[C@@H]3C[C@@H]4C(=O)N[C@@H](CCCC[N+](C)(C)C)C(=O)N4[C@@H]3c3cccc(OCCO)c3)cc2)[C@@]12C(=O)Nc1ccc(I)cc12 | Concanavalin-A (Canavalia ensiformis) (UniProt P02866) | composite z-score | 1.19 |
| C=CCNC(=O)[C@@H]1[C@H]2C(=O)O[C@H](c3ccccc3)[C@H](c3ccccc3)N2[C@H](c2ccc(OCCO)cc2)[C@@]12C(=O)Nc1ccc(C#Cc3ccc(OC)cc3)cc12 | Concanavalin-A (Canavalia ensiformis) (UniProt P02866) | composite z-score | 1.13 |
| COc1ccc(C(=O)O[C@H]2CC[C@]3(C)C4=C(CCC3C2(C)C)[C@]2(C)CC[C@H]([C@H](C)CCCC(C)C)[C@@]2(C)CC4)cc1 (stereo partly drawn) | Concanavalin-A (Canavalia ensiformis) (UniProt P02866) | composite z-score | 0.447 |
| COc1ccc(C(O)C2C=CC3C(=O)N(c4ccccc4)C(=O)C3N2Nc2ccc(C(C)C)cc2)cc1OCc1ccccc1 (stereo not drawn) | Concanavalin-A (Canavalia ensiformis) (UniProt P02866) | composite z-score | 1.12 |
| CCCCCN1CC=CC23O[C@@H]4/C=C\CCCOC(=O)C4[C@H]2C(=O)N(C(CO)C(C)C)[C@@H]3C1=O (stereo partly drawn) | Concanavalin-A (Canavalia ensiformis) (UniProt P02866) | composite z-score | -0.574 |
| COC(=O)[C@@]1(Cc2ccccc2)[C@H]2c3cc(C(=O)N(C)C)n(CCSCCO)c3C[C@H]2CN1C(=O)c1ccccc1 | Concanavalin-A (Canavalia ensiformis) (UniProt P02866) | composite z-score | 0.523 |
